measurement_target: cGAS (Homo sapiens)
Sequence (Q8N884 whole entry): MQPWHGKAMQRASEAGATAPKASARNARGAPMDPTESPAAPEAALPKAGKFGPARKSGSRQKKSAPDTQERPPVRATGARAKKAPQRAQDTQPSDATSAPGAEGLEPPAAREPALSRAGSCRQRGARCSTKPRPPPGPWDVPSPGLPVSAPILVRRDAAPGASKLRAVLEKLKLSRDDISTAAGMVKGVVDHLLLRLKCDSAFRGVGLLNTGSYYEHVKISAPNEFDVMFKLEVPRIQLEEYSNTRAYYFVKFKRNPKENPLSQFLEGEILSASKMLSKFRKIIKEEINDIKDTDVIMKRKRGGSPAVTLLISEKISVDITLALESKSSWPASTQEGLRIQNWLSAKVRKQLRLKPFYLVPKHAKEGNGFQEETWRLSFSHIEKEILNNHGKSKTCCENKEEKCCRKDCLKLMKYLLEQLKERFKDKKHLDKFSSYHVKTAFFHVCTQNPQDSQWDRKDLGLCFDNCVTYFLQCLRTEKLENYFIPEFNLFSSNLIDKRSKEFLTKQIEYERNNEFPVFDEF
experimental_protocol: cGAS enzymatic assay (FP/TR-FRET detection of cGAMP)
Type: biochemical
Set-up: The cGAS assay was used to screen 100,000 compounds with full-length human cGAS; 6xHis; made in house
particulars: cGAS (30 nM), with Mn^2+; read-out: Inhibition cGAS + Mn^2+
pIC50: −log10 of the molar value.
quantity_name: pIC50

Past entries and their recorded results:
molecule: O=C(O)[C@@H]1CCCN1c1nc(C2CC2)nc2c1oc1ccccc12 [Compound 8]
observed_result: < 5.00
//
molecule: Cc1nc(N2C[C@@H](N(C)c3n[nH]cc3C)C[C@H]2C(=O)O)c2oc3ccccc3c2n1 [Compound 64]
observed_result: 5.00 to 6.00
//
molecule: O=C(O)C1CCCN(c2ncnc3c2oc2ccccc23)C1 (stereo not shown) [Compound 6]
observed_result: < 5.00

Sample C[C@H](Nc1nc(-c2ccccc2)nc2c1oc1ccccc12)C(=O)O [Compound 3] ; pIC50 observed: < 5.00

Cited source for all entries: patent US20220073532A1
